Molecular target: T1, PUF4 RNA-binding domain (Saccharomyces cerevisiae, UniProt P25339 537-888)
T1 sequence: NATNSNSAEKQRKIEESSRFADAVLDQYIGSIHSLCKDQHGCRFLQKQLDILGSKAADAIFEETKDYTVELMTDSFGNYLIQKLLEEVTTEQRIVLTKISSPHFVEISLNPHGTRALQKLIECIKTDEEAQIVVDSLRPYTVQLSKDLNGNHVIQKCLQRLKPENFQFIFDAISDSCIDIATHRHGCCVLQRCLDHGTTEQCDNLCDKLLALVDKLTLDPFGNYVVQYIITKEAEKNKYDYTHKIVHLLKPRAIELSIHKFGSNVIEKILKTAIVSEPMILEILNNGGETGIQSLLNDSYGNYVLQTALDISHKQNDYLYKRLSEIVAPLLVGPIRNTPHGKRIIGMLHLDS
Assay: Mg; RNA-MaP; 20 mM Na-HEPES pH 7.4, 30 mM KOAc, 0.75 mM MgCl2, 0.1% Tween-20, 5% glycerol, 0.1 mg/mL BSA, 2 mM DTT; 25 C; 0.0125-409.6 nM protein
Settings: tags: N-His6-TEV cleaved; C-SNAP kept, Cy3B-labelled; label: tethered on chip by stalled RNA polymerase
measure: log10 Kd (log10 of the value in nM)

binder="UCUCUUGCUAUAUUAUUACAUCUCUU (ssRNA) [Id_ii_S1_P5E.3_K5.2_C5.2_[C-2G]_[T-1C]_H5.2_A5.1_F5.1_T5.2_[T11C]]" test_value=2.71
binder="UCUCUUUCUCGUAUUAUUAUCUCUU (ssRNA) [Ie_S1_P5E.1_K5.1_C5.1_H5.1_[+1CTC]_A5.1_F5.1_T5.1]" test_value=3.10
binder="UCUCUUCCUAUAUAUUAUGUCUCUU (ssRNA) [Id_ii_S1_P4E.3_K4.2_C4.2_[T-1C]_H4.2_A4.1_F4.1_T4.2_[G10T]_[T11G]]" test_value=1.32
binder="Ie_S2_P3E.2_K3.1_C3.2_H3.1_[+1CCTCT]_A3.1_F3.1_T3.2 (ssRNA) RNA: UUUGAUUAAUAUGAUAUCGUUCUUUCUCUUCCUCUGUAUAUAUAUUCUUUCUCGAUAUCAUAUUAAUCUUU" test_value=0.05
binder="UCUCUUUGUAGUAUCUCUCUU (ssRNA) [Ic_S1_P4E.1_K4.1_C4.1_H4.1_A4.1_[T5G]_[A6T]_[T7A]_F4.1_[A9C]_T4.1]" test_value=2.77
binder="UCUCUUACUAUAUUAUUACAUCUCUU (ssRNA) [Id_ii_S1_P5E.3_K5.2_C5.2_[C-2A]_[T-1C]_H5.2_A5.1_F5.1_T5.2_[T11C]]" test_value=2.63
